- Experiment Notes: GDH-TPI coupling enzyme inhibitors, primary screen, artefact control for M. tuberculosis FBA inhibitor project, biochemical, absorbance, full deck (AID 588335);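 also: 0% = DMSO wells and 100% = wells lacking the enzyme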
- Experimental Parameters: GDH-TPI coupled enzyme counterscreen, NADH absorbance; at 4.8 µM; stronger effect = higher value
Hit rate of the full screen: of about 360,000 compounds, about 4,500 (1.2%) were called active. The sample holds actives, similar compounds and a random draw of the others, so the mix is not that of the screen.
Provide the reported inhibition of each item.

input: Reported inhibition, compound CNC(=O)/C(=C\C=C\c1ccccc1)NC(=O)c1ccc([N+](=O)[O-])cc1 : ____
output: 39.1% (active)

input: Reported inhibition, compound COc1ccc(NC(=O)N(C)C[C@H]2Oc3ncc(C#C[C@@H](C)O)cc3C(=O)N([C@H](C)CO)C[C@H]2C)cc1 : ____
output: 1.42% (inactive)

input: Reported inhibition, compound O=C(NCc1ccco1)/C(=C\c1cccc([N+](=O)[O-])c1)NC(=O)c1ccco1 : ____
output: 16.8% (inactive)

input: Reported inhibition, compound Cc1cc([N+](=O)[O-])c(-c2ccc(/C=N/n3cnnc3)o2)cc1Cl : ____
output: 34.8% (active)

input: Reported inhibition, compound CC(=O)N1CCc2cc(Br)cc(S(=O)(=O)CCC(=O)Nc3c(C)n(C)n(-c4ccccc4)c3=O)c21 : ____
output: 0% (inactive)

input: Reported inhibition, compound Cc1nnc(SCc2cccc(Cl)c2)n(N)c1=O : ____
output: -5.68% (inactive)

input: Reported inhibition, compound O=C(Cc1c(F)cccc1Cl)N1CCN(C(=O)c2ccco2)CC1 : ____
output: -4.08% (inactive)

input: Reported inhibition, compound CN(C)c1ccc(Nc2c3c4c(cccc4n(C)c2=O)C(=O)c2ccccc2-3)cc1 : ____
output: 5.68% (inactive)

input: Reported inhibition, compound Brc1ccc(CN2CC[C@H]3C=CCc4cccc(c43)C2)cc1 : ____
output: 6.9% (inactive)

input: Reported inhibition, compound CN(C)Cc1ccc(F)cc1Sc1cc(Cl)ccc1Cl : ____
output: 6.23% (inactive)

input: Reported inhibition, compound CC(C)=N/N=C1/NC(=O)C(Cc2ccccc2)S1 (centres undefined) : ____
output: 1.52% (inactive)

input: Reported inhibition, compound Cc1ccc(/C=N/NC(=O)COc2ccccc2-c2ccccc2)cc1 : ____
output: 5.68% (inactive)

input: Reported inhibition, compound CCOC(=O)C(CC)Sc1ncnc2c1nnn2-c1ccc(F)cc1 (centres undefined) : ____
output: 11.2% (inactive)

input: Reported inhibition, compound CCOc1ccc(C(=O)NCC(=O)N2CCCCCCC2)cc1OCC : ____
output: -2.14% (inactive)

input: Reported inhibition, compound Cc1ccc(C)c(-n2ccnc2SCC(N)=O)c1 : ____
output: -8.54% (inactive)

input: Reported inhibition, compound CCOC(=O)N1CCN(C(=O)CSc2nnc(-c3c[nH]c4ccccc34)n2CCOC)CC1 : ____
output: 21.3% (inactive)

input: Reported inhibition, compound Nc1nc(Nc2ccccc2)nc(NCCO)c1[N+](=O)[O-] : ____
output: 39.5% (active)

input: Reported inhibition, compound NC(=O)CN1CCCC1c1ccc2c(c1)OCCO2 (centres undefined) : ____
output: -7.41% (inactive)

input: Reported inhibition, compound O=C(Nc1ccc(C(=O)O)cc1)/C(=C\c1ccccc1)NC(=O)c1ccc(Br)cc1 : ____
output: -8.77% (inactive)

---

- Experiment Notes: GDH-TPI coupling enzyme inhibitors, primary screen, artefact control for M. tuberculosis FBA inhibitor project, biochemical, absorbance, full deck (AID 588335);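 also: 0% = DMSO wells and 100% = wells lacking the enzyme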
- Experimental Parameters: GDH-TPI coupled enzyme counterscreen, NADH absorbance; at 4.8 µM
The campaign covered roughly 360,000 compounds. About 4,500 (1.2%) were called active. Cut-off read from the data, not from the text of the source: active = inhibition above about 30%; inactive = the rest. This is one part of a sample in which actives are shown more often than they occur.
Choose the fitting class; nothing outside label 1 = active, label 0 = inactive is accepted.

input: Just curious, what result did O=C(CN1CCN(S(=O)(=O)c2cc(Cl)ccc2Cl)CC1)c1ccc(O)c(O)c1 get here?
output: label 0

input: Just curious, what result did Cc1cc(=O)oc2c3c(cc(OCC(=O)NCc4ccccn4)c12)OC(C)(C)CC3 get here?
output: label 0

input: Just curious, what result did Cc1ccc(-c2nn(C(C)(C)C)c3ncnc(N)c23)cc1 get here?
output: label 0

input: Just curious, what result did Cc1cc(=O)oc2c3c(cc(OCC(=O)NCC(O)c4ccccc4)c12)OC(C)(C)CC3 (stereo not drawn) get here?
output: label 0

input: Just curious, what result did Cc1c(C)c2c(OCC(=O)N[C@@H](C(=O)O)c3ccccc3)cc3c(c2oc1=O)CCC(C)(C)O3 get here?
output: label 1

input: Just curious, what result did CC(c1ccco1)N(C(=O)c1ccc(S(=O)(=O)N2CCCCC2)cc1)c1ccccn1 (stereo not drawn) get here?
output: label 0

input: Just curious, what result did COc1ccc(NC(=O)CCCOc2ccc(C(C)=O)cc2)cc1S(=O)(=O)N1CCCCC1 get here?
output: label 0

input: Just curious, what result did COCCCn1c(SCc2cccc(OC)c2)nc2cc(OC)c(OC)cc2c1=N get here?
output: label 0

input: Just curious, what result did CCN1C(=NCCc2cccnc2)N[C@@H](c2ccccc2)[C@H](C(=O)OC)[C@H]1C get here?
output: label 0

input: Just curious, what result did CCc1cc(=O)oc2c(C)c(OCC(=O)N3CC[C@@]4(O)CCCC[C@H]4C3)ccc12 get here?
output: label 0

input: Just curious, what result did CCOC(=O)Cn1c(O)c(N=NC(=O)CNC(=O)Cc2ccccc2)c2ccccc21 get here?
output: label 0

input: Just curious, what result did CC(=O)c1ccc(OCCCC(=O)Nc2ccc(C)c(S(=O)(=O)N3CCOCC3)c2)cc1 get here?
output: label 0

input: Just curious, what result did Cc1cc(=O)oc2c3c(cc(OCC(=O)N[C@H](C(=O)O)c4ccccc4)c12)OC(C)(C)CC3 get here?
output: label 1

input: Just curious, what result did COC(=O)Cn1c(O)c(N=NC(=O)OC)c2ccccc21 get here?
output: label 1

input: Just curious, what result did COc1ccc(/C=N/Nc2nc(-c3ccc(C)cc3)c(C#N)c(=O)[nH]2)cc1 get here?
output: label 0

input: Just curious, what result did CCCCn1c(N)c(N2CCOCC2)c(=O)n(CC(=O)NCCc2ccccc2)c1=O get here?
output: label 0

input: Just curious, what result did COc1cccc(C(=O)NC(=O)Nc2nc(C)cc(C(F)(F)F)n2)c1 get here?
output: label 0

input: Just curious, what result did O=C(NN=CC=Cc1ccccc1)C(O)C(O)C(=O)NN=CC=Cc1ccccc1 (stereo not drawn) get here?
output: label 0

---

- Experiment Notes: GDH-TPI coupling enzyme inhibitors, primary screen, artefact control for M. tuberculosis FBA inhibitor project, biochemical, absorbance, full deck (AID 588335);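 also: 0% = DMSO wells and 100% = wells lacking the enzyme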
- Experimental Parameters: GDH-TPI coupled enzyme counterscreen, NADH absorbance; at 4.8 µM
Among all 360,000 compounds or so, about 4,500 (1.2%) were called active. Cut-off read from the data, not from the text of the source: active = inhibition above about 30%; inactive = the rest. This excerpt belongs to a sample that is enriched for actives.
Choose the fitting class; nothing outside active, inactive is accepted.

input: Just curious, what result did Cc1ccc(C(=O)N/C(=C/c2cccs2)C(=O)N2CCCCC2)cc1 get here?
output: inactive

input: Just curious, what result did O=C(O)c1ccc(N/N=C/c2ccc3ncccc3c2)cc1 get here?
output: active

input: Just curious, what result did Cc1cc(=O)oc(C)c1C(=O)NCc1ccc(F)cc1 get here?
output: inactive

input: Just curious, what result did CN(C(=O)COC(=O)c1cc(=O)[nH]c2ccccc12)C1CCCCC1 get here?
output: inactive

input: Just curious, what result did O=C1C2C3C=CC(C4CC34)C2C(=O)N1/N=C/c1ccc(-c2ccccc2[N+](=O)[O-])o1 (centres undefined) get here?
output: active

input: Just curious, what result did COc1ccc(CN2CCCCC2C)cc1OC (centres undefined) get here?
output: inactive

input: Just curious, what result did CCCNC(=O)N1CCC(c2ccc3c(c2)OCO3)CC1 get here?
output: inactive

input: Just curious, what result did CCOc1cc(/C=N/NC(=O)c2c(C)nc3ccc(Cl)cn23)ccc1O get here?
output: active

input: Just curious, what result did CCNC(=S)NNC(=O)c1ccc2ncccc2c1 get here?
output: inactive

input: Just curious, what result did COc1ccc(S(=O)(=O)N2CCCC2CNC(=O)C(=O)NC2CC2)cc1 (centres undefined) get here?
output: inactive

input: Just curious, what result did O=C(NCc1cccnc1)c1cccnc1Sc1ccc(Cl)cc1 get here?
output: inactive

input: Just curious, what result did COc1ccc(C2CC(=O)Oc3ccc(C(C)(C)C)cc32)cc1 (centres undefined) get here?
output: inactive

input: Just curious, what result did CC1C(=O)N2CCCc3cc(S(=O)(=O)NCc4ccc(F)cc4)cc1c32 (centres undefined) get here?
output: inactive

input: Just curious, what result did O=C1/C(=C/c2ccc3c(c2)OCO3)Oc2cc(OCC(=O)N3CC(O)C[C@H]3C(=O)O)ccc21 (some centres undefined) get here?
output: inactive

input: Just curious, what result did CC(=O)Nc1nc(C)c(-c2csc(Nc3ccc(S(N)(=O)=O)cc3)n2)s1 get here?
output: active

input: Just curious, what result did O=C1c2ccccc2-c2ccccc2NC1O (centres undefined) get here?
output: inactive

input: Just curious, what result did Cc1cc(Cl)ccc1C(=O)C1CCCN(C(=O)c2ccc3c(c2)OCO3)C1 (centres undefined) get here?
output: inactive

input: Just curious, what result did CC(=O)c1cnc(-c2ccccc2)s1 get here?
output: inactive

input: Just curious, what result did CCN(CC(=O)NC(=O)NCc1ccccc1)Cc1nc2ccccc2c(=O)[nH]1 get here?
output: inactive

input: Just curious, what result did CCc1c(C)nc(N)n2c(SCC(=O)NC3CCCCC3)nnc12 get here?
output: inactive

input: Just curious, what result did Cc1nc(-c2ccc(Cl)cc2)sc1C(=O)CBr get here?
output: inactive

input: Just curious, what result did O=C(N/N=C/c1ccc(Br)o1)c1cncc(Br)c1 get here?
output: active

input: Just curious, what result did O=C(Oc1cccc(N2C(=O)C3C4c5ccccc5C(c5ccccc54)C3C2=O)c1)c1ccco1 (centres undefined) get here?
output: inactive

input: Just curious, what result did CCOc1ccc(/C=N\NC(=O)c2c(C)nc3cc(C)ccn23)cc1 get here?
output: inactive

input: Just curious, what result did CN(C)/C=C1/C(=O)Nc2ccccc21 get here?
output: active

input: Just curious, what result did CCN1C(=O)[C@H]2[C@@H](c3ccccc3)N[C@]3(CCCN(Cc4ccc(C)cc4)C3=O)[C@H]2C1=O get here?
output: inactive

input: Just curious, what result did O=C1/C(=C\c2ccc3c(c2)OCO3)N2CCC1CC2 get here?
output: active

input: Just curious, what result did C=CCc1cccc2cc(C(=O)OCC)c(=O)oc12 get here?
output: inactive

input: Just curious, what result did CCOc1cccc2cc(C(=O)OCC(=O)Nc3c(C)cccc3CC)c(=O)oc12 get here?
output: inactive

input: Just curious, what result did O=C(NCc1cccnc1)c1cc(C2CCCCN2C(=O)CCc2ccccc2)on1 (centres undefined) get here?
output: inactive

input: Just curious, what result did CCCCC(=O)Nc1nc(C)c(-c2csc(Nc3ccc(Cl)cc3)n2)s1 get here?
output: inactive

input: Just curious, what result did C=CCCC(=O)Nc1nc(C)c(-c2csc(Nc3ccc(Cl)cc3)n2)s1 get here?
output: inactive

input: Just curious, what result did CN(C(=O)CSc1nc(C2CC2)nc2ccccc12)c1nc(-c2ccccc2)cs1 get here?
output: inactive

input: Just curious, what result did Cc1ccc(S(=O)(=O)N2CCCCC2)cc1C(=O)N1CCN(CCO)CC1 get here?
output: inactive

input: Just curious, what result did COc1ccc(NC2=CC(=S)NC(C)(C)C2)cc1 get here?
output: active

input: Just curious, what result did Cc1nnsc1C(=O)N/N=C/c1cccc(C(F)(F)F)c1 get here?
output: inactive

input: Just curious, what result did CCN(CC)c1ccc(C(=O)NNC(=O)CCc2nc3ccccc3c(=O)[nH]2)cc1 get here?
output: active

input: Just curious, what result did CC(=O)N1CCOc2ccc(S(=O)(=O)N3CCN(c4cccc(C(F)(F)F)c4)CC3)cc21 get here?
output: inactive

input: Just curious, what result did CN(C)/C=C1\C=C(c2ccccc2)OC1=O get here?
output: inactive
